# Protocol summary: CCTE_Shafer_MEA_dev_per_network_spike_spike_percent: CCTE's Neural Network Formation Assay for Percent of Spikes in a Network Spike, Shafer Lab (AID 2284054)
Active and inactive are the calls of the source. The calls were made as follows: active = hit-call score of the fitted dose curve at least 0.9, where 1 is the maximum; inactive = score below 0.9.

Compound smiles: CC[C@H](C)C(=O)O[C@H]1C[C@@H](C)C=C2C=C[C@H](C)[C@H](CC[C@@H]3C[C@@H](O)CC(=O)O3)[C@H]21
AC50: 1770 nM (active)

Compound smiles: CNCc1ccc(NC(=O)c2c[nH]c3c2C(=O)CCC3)cc1
AC50: inactive

Compound smiles: CC[C@H]1OC(=O)[C@H](C)[C@@H](O[C@H]2C[C@@](C)(OC)[C@@H](O)[C@H](C)O2)[C@H](C)[C@@H](O[C@@H]2O[C@H](C)C[C@H](N(C)C)[C@H]2O)[C@](C)(O)C[C@@H](C)C(=O)[C@H](C)[C@@H](O)[C@]1(C)O
AC50: inactive

Compound smiles: NC(=O)NO
AC50: inactive

Compound smiles: O=P(OC(CCl)CCl)(OC(CCl)CCl)OC(CCl)CCl
AC50: inactive

---

# Read-out: Cytochrome P450 (CYP1A1), CYP1A1 (gene 1543)
# Protocol summary: LTEA_HepaRG_CYP1A1: Life Technologies and Expression Analysis (LTEA) Assay for Cytochrome P450 (CYP1A1) using HepaRG (AID 2283454)
# Settings: mRNA level, 48 h; actives raise or lower the signal
Active and inactive are the calls of the source. How the source made its calls: active means hit-call score of the fitted dose curve at least 0.9, where 1 is the maximum; inactive means score below 0.9.
Assay endpoint: AC50

Compound: CCN(C(=O)c1cc(C)cc(OC[C@H](C)Nc2ccncc2)c1)C(C)C
Assay endpoint: AC50
Result: 19.5 µM (active)
--
Compound: O=C(O)CC(O)C(=O)O (stereo unspecified)
Assay endpoint: AC50
Result: 77.9 µM (active)
--
Compound: Cc1[nH]cnc1C[C@H]1CCc2c(C)c3ccccc3n2C1=O
Assay endpoint: AC50
Result: 10.7 µM (active)
--
Compound: COC(=O)c1c(Cl)c(Cl)c(C(=O)OC)c(Cl)c1Cl
Assay endpoint: AC50
Result: 50 µM (active)
--
Compound: CCOC(=O)CC(CC(=O)OCC)(OC(C)=O)C(=O)OCC
Assay endpoint: AC50
Result: 70.5 µM (active)
--
Compound: CCOC(=O)c1ccc(C2CCC(NC[C@H](O)COc3ccc(O)c(NS(C)(=O)=O)c3)CC2)cc1 (stereo partly specified)
Assay endpoint: AC50
Result: 73.3 µM (active)

---

# Read-out: Interleukin-6 (IL6), IL6 (gene 3569)
# Protocol summary: BSK_CASM3C_IL6: BioMAP Diversity Plus: CASM3C Assay for Interleukin-6 (IL6) Biomarker Activity for (AID 2283040)
# Settings: primary human coronary artery smooth muscle cells; actives raise or lower the signal
The source made the active and inactive calls. How the source made its calls: active means hit-call score of the fitted dose curve at least 0.9, where 1 is the maximum; inactive means score below 0.9.
Outcomes: 1.0 for active, 0.0 for inactive

Compound: Oc1ccc2c(c1)-c1ccccc1C2
Class assignment: 0.0

Compound: Cc1ccc(O)cc1
Class assignment: 0.0

Compound: O=C(CCCCCCCCc1cccnc1)N1CCC(C=C(c2ccccc2)c2ccccc2)CC1
Class assignment: 0.0

Compound: Cn1c(=O)cc(Oc2ccc(F)cc2F)c2cnc(NCC(C)(C)O)nc21
Class assignment: 1.0

Compound: CC(C)(O)c1coc(S(=O)(=O)NC(=O)Nc2c3c(cc4c2CCC4)CCC3)c1
Class assignment: 0.0

Compound: CCOC(=O)COc1ccc2c(c1)CC(NCC(O)c1cccc(Cl)c1)CC2 (centres undefined)
Class assignment: 0.0

Compound: COC(=O)CC(=O)OC
Class assignment: 0.0

Compound: CCOCCO
Class assignment: 0.0

Compound: CC(C)=CCC/C(C)=C\CO
Class assignment: 0.0

---

# Target of assay: rat Serotonin Transporter (SERT), Slc6a4 (gene 25553) (UniProt P31652)
# Sequence (P31652 whole entry, looked up): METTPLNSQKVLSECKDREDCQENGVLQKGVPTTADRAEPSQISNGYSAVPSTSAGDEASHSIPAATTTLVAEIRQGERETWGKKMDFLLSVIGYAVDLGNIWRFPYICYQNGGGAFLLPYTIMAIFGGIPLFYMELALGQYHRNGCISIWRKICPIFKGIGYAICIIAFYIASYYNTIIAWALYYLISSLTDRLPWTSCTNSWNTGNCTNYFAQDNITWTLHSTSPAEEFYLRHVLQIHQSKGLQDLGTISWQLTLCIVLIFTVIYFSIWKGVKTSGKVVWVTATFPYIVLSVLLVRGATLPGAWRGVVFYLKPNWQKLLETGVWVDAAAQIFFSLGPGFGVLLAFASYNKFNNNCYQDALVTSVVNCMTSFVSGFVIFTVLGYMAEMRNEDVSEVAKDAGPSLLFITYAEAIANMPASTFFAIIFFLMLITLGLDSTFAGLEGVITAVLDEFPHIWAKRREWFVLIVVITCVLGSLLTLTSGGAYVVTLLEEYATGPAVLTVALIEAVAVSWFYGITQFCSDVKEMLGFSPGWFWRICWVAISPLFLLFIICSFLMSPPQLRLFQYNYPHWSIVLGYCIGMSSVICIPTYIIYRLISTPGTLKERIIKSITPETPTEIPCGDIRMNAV
# Protocol summary: NVS_TR_rSERT: NovaScreen (NVS) Transporter Assay for rat Serotonin Transporter (SERT) (AID 2283375)
Results filed as inconclusive are left out. Calls of active or inactive are those of the source. How the source made its calls: active means hit-call score of the fitted dose curve at least 0.9, where 1 is the maximum; inconclusive means response in the unintended direction; inactive means score below 0.9.
Possible outcomes: yes for active, no for inactive

Molecule: Fc1ccccc1[C@@H](F)COC1CCC(Nc2ncnc3[nH]ncc23)CC1 (stereo partly specified)
Target of assay: rat Serotonin Transporter (SERT), Slc6a4 (gene 25553) (UniProt P31652)
Class assignment: yes
//
Molecule: CCCN(C1CCN(C(=O)C2CCNCC2)CC1)[C@@H]1CCc2ccc(OC)cc2C1
Target of assay: rat Serotonin Transporter (SERT), Slc6a4 (gene 25553) (UniProt P31652)
Class assignment: yes
//
Molecule: CCCCCCc1ccc(O)cc1O
Target of assay: rat Serotonin Transporter (SERT), Slc6a4 (gene 25553) (UniProt P31652)
Class assignment: no
//
Molecule: CCOC(=O)COc1ccc2c(c1)CC(NCC(O)c1cccc(Cl)c1)CC2 (stereo unspecified)
Target of assay: rat Serotonin Transporter (SERT), Slc6a4 (gene 25553) (UniProt P31652)
Class assignment: yes
//
Molecule: CNS(=O)(=O)c1cc(C(=O)N2CCC(CCN3C4CCC3CC(n3c(C)nc5ccccc53)C4)(c3cccc(F)c3)CC2)c(Cl)cc1F (stereo unspecified)
Target of assay: rat Serotonin Transporter (SERT), Slc6a4 (gene 25553) (UniProt P31652)
Class assignment: yes
//
Molecule: CNCc1ccc(NC(=O)c2c[nH]c3c2C(=O)CCC3)cc1
Target of assay: rat Serotonin Transporter (SERT), Slc6a4 (gene 25553) (UniProt P31652)
Class assignment: yes

---

# Read-out: CFLAR gene, CFLAR (gene 8837)
# Protocol summary: LTEA_HepaRG_CFLAR: Life Technologies and Expression Analysis (LTEA) Assay for CFLAR gene using HepaRG (AID 2283455)
# Settings: mRNA level, 48 h; actives raise or lower the signal
Active and inactive are the calls of the source. How the source made its calls: active means hit-call score of the fitted dose curve at least 0.9, where 1 is the maximum; inactive means score below 0.9.
Possible outcomes: active, inactive

Molecule: CC(C)(O)c1coc(S(=O)(=O)NC(=O)Nc2c3c(cc4c2CCC4)CCC3)c1
Class assignment: inactive
//
Molecule: O=c1n(CC2CO2)c(=O)n(CC2CO2)c(=O)n1CC1CO1 (stereo unspecified)
Class assignment: inactive
//
Molecule: O=C(O)CC(O)C(=O)O (stereo unspecified)
Class assignment: inactive
//
Molecule: Cc1[nH]cnc1C[C@H]1CCc2c(C)c3ccccc3n2C1=O
Class assignment: active
//
Molecule: CN(C)c1ccc(Cc2ccc(N(C)C)cc2)cc1
Class assignment: inactive
//
Molecule: CC[C@H]1CC[C@H](NCc2cc3c(cc2OC)[C@H]2C[C@H]2C(=O)N3C)[C@H](c2ccccc2)N1
Class assignment: inactive
//
Molecule: O=C(CCCCCCCCc1cccnc1)N1CCC(C=C(c2ccccc2)c2ccccc2)CC1
Class assignment: inactive
//
Molecule: Cn1c(=O)cc(Oc2ccc(F)cc2F)c2cnc(NCC(C)(C)O)nc21
Class assignment: inactive
//
Molecule: CN(C)c1ccc(N=NS(=O)(=O)O)cc1
Class assignment: inactive
//
Molecule: On1ccccc1=S
Class assignment: inactive
//
Molecule: CCCN(C1CCN(C(=O)C2CCNCC2)CC1)[C@@H]1CCc2ccc(OC)cc2C1
Class assignment: active
//
Molecule: CCCCCCCCCCCCc1ccccc1
Class assignment: inactive
//
Molecule: O=C(O)c1cc(N=Nc2ccc(S(=O)(=O)Nc3ccccn3)cc2)ccc1O
Class assignment: inactive
//
Molecule: COCCOCCOCCOC
Class assignment: inactive
//
Molecule: CC(=O)OC[C@H]1O[C@@](COC(C)=O)(O[C@H]2O[C@H](COC(C)=O)[C@@H](OC(C)=O)[C@H](OC(C)=O)[C@H]2OC(C)=O)[C@@H](OC(C)=O)[C@@H]1OC(C)=O
Class assignment: inactive
//
Molecule: CCN(C(=O)c1cc(C)cc(OC[C@H](C)Nc2ccncc2)c1)C(C)C
Class assignment: inactive
//
Molecule: O=C1OC(=O)C2C3C=CC(C3)C12 (stereo unspecified)
Class assignment: inactive
//
Molecule: CNS(=O)(=O)c1cc(C(=O)N2CCC(CCN3C4CCC3CC(n3c(C)nc5ccccc53)C4)(c3cccc(F)c3)CC2)c(Cl)cc1F (stereo unspecified)
Class assignment: inactive
//
Molecule: Oc1ccc2c(c1)-c1ccccc1C2
Class assignment: inactive
//
Molecule: CC1(C)C(=O)N(Br)C(=O)N1Br
Class assignment: inactive
//
Molecule: CCCCCCCCO
Class assignment: inactive
//
Molecule: O=C(NS(=O)(=O)/C=C/c1ccccc1)c1ccc(F)cc1Cl
Class assignment: inactive
//
Molecule: NC(=O)NO
Class assignment: inactive
//
Molecule: C[C@](N)(Cc1ccc(O)c(O)c1)C(=O)O
Class assignment: inactive
//
Molecule: C=CC(=C)CCC=C(C)C
Class assignment: inactive
//
Molecule: CC(C)=CCCC(C)CCO (stereo unspecified)
Class assignment: inactive
//
Molecule: CCOC(=O)c1ccc(C2CCC(NC[C@H](O)COc3ccc(O)c(NS(C)(=O)=O)c3)CC2)cc1 (stereo partly specified)
Class assignment: inactive
//
Molecule: C=CCCCCCCCCC(=O)O
Class assignment: inactive
//
Molecule: O=P(OC(CCl)CCl)(OC(CCl)CCl)OC(CCl)CCl
Class assignment: inactive
//
Molecule: Cc1c(-c2cccnc2)c2ccccc2n1CCCCC(=O)O
Class assignment: inactive
//
Molecule: Cc1ccc(C)c(O)c1
Class assignment: inactive
//
Molecule: C1=CCCC=CCCC=CCC1
Class assignment: inactive
//
Molecule: COC(=O)c1c(Cl)c(Cl)c(C(=O)OC)c(Cl)c1Cl
Class assignment: inactive
//
Molecule: CC(C)CCO
Class assignment: inactive
//
Molecule: CC(C)CCCCCCCOC(=O)CCCCC(=O)OCCCCCCCC(C)C
Class assignment: inactive
//
Molecule: Fc1ccccc1[C@@H](F)COC1CCC(Nc2ncnc3[nH]ncc23)CC1 (stereo partly specified)
Class assignment: inactive
//
Molecule: CC[C@H]1OC(=O)[C@H](C)[C@@H](O[C@H]2C[C@@](C)(OC)[C@@H](O)[C@H](C)O2)[C@H](C)[C@@H](O[C@@H]2O[C@H](C)C[C@H](N(C)C)[C@H]2O)[C@](C)(O)C[C@@H](C)C(=O)[C@H](C)[C@@H](O)[C@]1(C)O
Class assignment: inactive
//
Molecule: CC(C)=CCCC(C)=CC=O
Class assignment: inactive
//
Molecule: CC(C)c1cccc(C(C)C)c1N1C(=O)c2ccc(O)cc2C1=O
Class assignment: inactive
//
Molecule: COC(=O)c1ccccc1O
Class assignment: inactive
//
Molecule: C1N2CN3CN1CN(C2)C3
Class assignment: inactive
//
Molecule: O=C(O)c1cccc(Oc2ccccc2)c1
Class assignment: inactive
//
Molecule: O=C(OC[C@H]1O[C@@H](OC(=O)c2cc(O)c(O)c(OC(=O)c3cc(O)c(O)c(O)c3)c2)[C@H](OC(=O)c2cc(O)c(O)c(OC(=O)c3cc(O)c(O)c(O)c3)c2)[C@@H](OC(=O)c2cc(O)c(O)c(OC(=O)c3cc(O)c(O)c(O)c3)c2)[C@@H]1OC(=O)c1cc(O)c(O)c(OC(=O)c2cc(O)c(O)c(O)c2)c1)c1cc(O)c(O)c(OC(=O)c2cc(O)c(O)c(O)c2)c1
Class assignment: inactive
//
Molecule: CNCc1ccc(NC(=O)c2c[nH]c3c2C(=O)CCC3)cc1
Class assignment: inactive
//
Molecule: CCCCC(CC)COC(=O)CCCCCCCCC(=O)OCC(CC)CCCC (stereo unspecified)
Class assignment: inactive
//
Molecule: CCOCCOCCOCCO
Class assignment: inactive

Values compiled from PubChem BioAssay (EPA / NIEHS).
